Provide the recorded Selectivity Kv1.2/Kv1.3 for the entries that follow.
Molecular target: Kv1.2 (Homo sapiens, UniProt P16389)
Construct: expressed in transfected cells
Sequence (P16389 whole entry): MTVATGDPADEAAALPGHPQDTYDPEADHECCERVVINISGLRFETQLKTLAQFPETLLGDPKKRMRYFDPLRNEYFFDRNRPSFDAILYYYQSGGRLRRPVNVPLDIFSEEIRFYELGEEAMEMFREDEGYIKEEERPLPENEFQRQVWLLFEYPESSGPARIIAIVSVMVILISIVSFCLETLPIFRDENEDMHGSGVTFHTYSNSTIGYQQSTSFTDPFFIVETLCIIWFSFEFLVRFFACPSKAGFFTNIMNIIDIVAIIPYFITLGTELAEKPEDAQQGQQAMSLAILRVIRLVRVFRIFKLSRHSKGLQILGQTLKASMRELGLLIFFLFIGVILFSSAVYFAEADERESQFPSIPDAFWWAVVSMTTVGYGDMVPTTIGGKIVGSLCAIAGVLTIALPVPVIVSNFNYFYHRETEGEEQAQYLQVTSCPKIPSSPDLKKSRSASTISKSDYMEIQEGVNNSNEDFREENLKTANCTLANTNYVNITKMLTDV
Test: Patch clamp assay (QPatch), Kv1.2
Format: cell-based
Settings: ratio of IC50 Kv1.2/Kv1.3
Give bare numbers.

Guide cases for Selectivity Kv1.2/Kv1.3, answers given:
> print(dat)
                                  substance  quantitative.result
1  H-S[Nle]DERC(1)SASVEC(2)KQKC(3)LKAIGSIFGKC(1)MNKKC(2)KC(3)YPR-NH2 [Peptide 78]                  430
2  H-N[Nle]D[Nle]RC(1)SHSVEC(2)KQKC(3)LKAIGSIFGKC(1)[Nle]NKKC(2)KC(3)YPR-NH2 [Peptide 48]                 1438

Here is another substance to look at.
Given item H-[phosphotyrosyl][8-Amino-3,6-dioxaoctanoyl]RSCIDTIPKSRCTAFQCKHSMKYRLSFCRKTCGTC-NH2 [ShK-186, reference compound] , the value recorded as its Selectivity Kv1.2/Kv1.3 is 682

* * *

Target: Kv1.6 (Homo sapiens)
Construct: expressed in transfected cells
Sequence (P17658 whole entry): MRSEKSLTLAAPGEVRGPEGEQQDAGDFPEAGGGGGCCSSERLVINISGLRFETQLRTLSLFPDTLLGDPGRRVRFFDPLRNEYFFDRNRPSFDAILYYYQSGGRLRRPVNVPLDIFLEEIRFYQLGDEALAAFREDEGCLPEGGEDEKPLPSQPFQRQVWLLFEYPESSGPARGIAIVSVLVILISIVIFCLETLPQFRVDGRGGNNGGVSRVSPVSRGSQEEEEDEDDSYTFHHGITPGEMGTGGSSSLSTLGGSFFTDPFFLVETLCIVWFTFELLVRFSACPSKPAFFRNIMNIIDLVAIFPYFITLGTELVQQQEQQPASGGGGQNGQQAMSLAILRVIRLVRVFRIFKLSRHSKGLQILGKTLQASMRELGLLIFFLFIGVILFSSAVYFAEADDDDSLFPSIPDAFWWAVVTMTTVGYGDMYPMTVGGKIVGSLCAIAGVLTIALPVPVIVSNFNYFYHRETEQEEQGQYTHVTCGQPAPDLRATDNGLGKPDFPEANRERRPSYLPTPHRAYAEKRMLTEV
Experiment: Patch clamp assay (QPatch), Kv1.6
Format: cell-based
Details: ratio of IC50 Kv1.6/Kv1.3
Provide the recorded Selectivity Kv1.6/Kv1.3 for the entries that follow.

Guide cases for Selectivity Kv1.6/Kv1.3, answers given:
> print(dat)
                                   substance                   tgt       attribute.measured   result
 1  H-NMDMRC(1)SASVEC(2)KQKC(3)LYAIGSIFGKC(1)MNKKC(2)KC(3)YPR-NH2 [Peptide 54]  Kv1.6 (Homo sapiens)  Selectivity Kv1.6/Kv1.3   >10300
 2  H-P[Nle]D[Nle]RC(1)SASVEC(2)KQKC(3)LKAIGC(4)IFGKC(1)[Nle]NKKC(2)KC(3)YPC(4)-NH2 [Peptide 85]  Kv1.6 (Homo sapiens)  Selectivity Kv1.6/Kv1.3     1949
 3  H-NMEMRC(1)SASVEC(2)KQKC(3)LKAIGSIFGKC(1)MNKKC(2)KC(3)YPR-OH [Peptide 13]  Kv1.6 (Homo sapiens)  Selectivity Kv1.6/Kv1.3   >27600
 4  H-P[Nle]D[Nle]RC(1)SASVEC(2)KQKC(3)LKAIGSIFGKC(1)[Nle]NKKC(2)KC(3)YPR-NH2 [Peptide 42]  Kv1.6 (Homo sapiens)  Selectivity Kv1.6/Kv1.3   >17100
 5  H-P[Nle]E[Nle]RC(1)[2-Amino-3-guanidinopropionyl]ASVEC(2)KQKC(3)LAAIGSIFGKC(1)[Nle]NKKC(2)KC(3)YPR-OH [Peptide 91]  Kv1.6 (Homo sapiens)  Selectivity Kv1.6/Kv1.3   >46000
 6  H-NMDMRC(1)SASVEC(2)KQKC(3)LKAIGSRFGKC(1)MNKKC(2)KC(3)YPR-NH2 [Peptide 36]  Kv1.6 (Homo sapiens)  Selectivity Kv1.6/Kv1.3      963
 7  H-P[Nle]E[Nle]RC(1)[2,4-Diaminobutanoyl]ASVEC(2)KQKC(3)LAAIGSIFGKC(1)[Nle]NKKC(2)KC(3)YPR-OH [Peptide 84]  Kv1.6 (Homo sapiens)  Selectivity Kv1.6/Kv1.3  >100000
 8  H-S[Nle]DERC(1)SASVEC(2)KQKC(3)LKAIGSIFGKC(1)MNKKC(2)KC(3)YPR-NH2 [Peptide 78]  Kv1.6 (Homo sapiens)  Selectivity Kv1.6/Kv1.3   >10600
 9  H-NMDMRC(1)SASVEC(2)KQKC(3)KKAIGSIFGKC(1)MNKKC(2)KC(3)YPR-NH2 [Peptide 20]  Kv1.6 (Homo sapiens)  Selectivity Kv1.6/Kv1.3     1955
10  H-NMDMRC(1)SASREC(2)KQKC(3)LKAIGSIFGKC(1)MNKKC(2)KC(3)YPR-NH2 [Peptide 28]  Kv1.6 (Homo sapiens)  Selectivity Kv1.6/Kv1.3     1778

Could you tell me Selectivity Kv1.6/Kv1.3 for each of these substances? They are listed below.
1. H-NIDMRC(1)SASVEC(2)KQKC(3)LKAIGSIFGKC(1)MNKKC(2)KC(3)YPR-OH [Peptide 9]
2. H-N[Nle]D[Nle]RC(1)SASKEC(2)KQKC(3)LKAIGSIFGKC(1)[Nle]NKKC(2)KC(3)YPR-NH2 [Peptide 64]
3. H-N[Nle]D[Nle]RC(1)SASVEC(2)KQSC(3)LKAIGSIFGKC(1)[Nle]NKKC(2)KC(3)YPR-NH2 [Peptide 49]
4. H-P[Nle]E[Nle]RC(1)SASVEC(2)KQKC(3)LAAIGSIFGKC(1)[Nle]NKKC(2)KC(3)YPR-NH2 [Peptide 101]

Key:
>6800
3929
>8200
>16200
